IFNγ release NK-92 assay EC50 listing for selected binders.
Molecular target: T1, IL-18 receptor (IL-18Rαβ) on cells (UniProt Q13478 19-541; O95256 20-599, limits assumed)
T1 sequence (looked up) 1: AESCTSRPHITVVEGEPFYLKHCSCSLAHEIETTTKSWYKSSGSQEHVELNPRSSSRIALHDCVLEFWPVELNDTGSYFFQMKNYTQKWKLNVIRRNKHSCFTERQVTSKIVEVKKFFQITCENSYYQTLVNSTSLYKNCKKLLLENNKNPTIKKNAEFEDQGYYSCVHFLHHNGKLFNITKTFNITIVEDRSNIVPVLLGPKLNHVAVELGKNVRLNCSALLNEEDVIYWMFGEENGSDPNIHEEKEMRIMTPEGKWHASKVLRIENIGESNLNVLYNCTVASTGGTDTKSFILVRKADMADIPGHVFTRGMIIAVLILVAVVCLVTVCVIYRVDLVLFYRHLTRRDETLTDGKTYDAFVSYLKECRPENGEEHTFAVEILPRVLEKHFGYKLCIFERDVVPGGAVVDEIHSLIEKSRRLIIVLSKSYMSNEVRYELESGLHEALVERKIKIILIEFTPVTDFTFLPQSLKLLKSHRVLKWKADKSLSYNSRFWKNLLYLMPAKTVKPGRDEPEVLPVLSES
T1 sequence (looked up) 2: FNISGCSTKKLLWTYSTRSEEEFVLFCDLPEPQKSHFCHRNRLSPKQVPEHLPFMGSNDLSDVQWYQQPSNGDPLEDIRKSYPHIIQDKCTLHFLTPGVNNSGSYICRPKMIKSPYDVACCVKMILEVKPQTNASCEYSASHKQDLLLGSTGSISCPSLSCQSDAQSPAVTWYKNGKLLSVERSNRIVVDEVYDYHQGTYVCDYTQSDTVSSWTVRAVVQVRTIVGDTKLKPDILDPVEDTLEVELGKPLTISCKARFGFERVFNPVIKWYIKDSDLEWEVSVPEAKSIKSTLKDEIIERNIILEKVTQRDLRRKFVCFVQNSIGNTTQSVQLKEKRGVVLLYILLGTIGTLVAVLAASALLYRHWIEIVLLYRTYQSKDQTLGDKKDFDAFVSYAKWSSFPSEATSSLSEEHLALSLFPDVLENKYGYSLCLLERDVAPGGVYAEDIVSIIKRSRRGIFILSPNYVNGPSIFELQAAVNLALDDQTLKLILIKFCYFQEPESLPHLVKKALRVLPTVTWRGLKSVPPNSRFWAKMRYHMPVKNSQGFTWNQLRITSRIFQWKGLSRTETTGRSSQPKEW
Assay: cell-based or functional assay
Kindly provide the numeric value in nM only, without the unit symbol.

# example entries with known answers
binder	readout_units	IFNγ release NK-92 assay EC50
C319 (ligand) MAAEPVEDNSINFVAMKFIDNTLYFIAEDDENLESDRGRRVANYFGKLKSKLSIIRNLNDQVLFIDQGNRPLFEDMTDSDARDNAPRTIFIISMYADSQPRGMAVAISVKCEKISTLSAENKIISFKEMNPPDNIKDTKSDIIFFQRSVPGHDNKMQFESSSYEGYFLAAEKERDLFKLILKKEDELGDRSIMFTVQNED	nM	21.3
C322 (ligand) MAAEPVEDNSINFVAMKFIDNTLYFIAEDDENLESDSGRVANLVGGSGYFGKLKSKLSIIRNLNDQVLFIDQGNRPLFEDMTDSDARDNAPRTIFIISMYADSQPRGMAVAISVKCEKISTLSAENKIISFKEMNPPDNIKDTKSDIIFFQRSVPGHDNKMQFESSSYEGYFLAAEKERDLFKLILKKEDELGDRSIMFTVQNED	nM	205

Please examine the following record next.
Per the records, this binder ( C324 + MMP9 (ligand) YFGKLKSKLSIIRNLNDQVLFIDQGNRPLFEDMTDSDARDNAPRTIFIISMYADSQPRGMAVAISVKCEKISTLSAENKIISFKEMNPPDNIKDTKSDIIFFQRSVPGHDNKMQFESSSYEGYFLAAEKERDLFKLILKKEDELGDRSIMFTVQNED ) has IFNγ release NK-92 assay EC50 equal to 0.0022
